Source listed as paper PMC5540273.

# Test system: INSR
# test_conditions: concentration: 1 μM, replicates: in singlicate; n = 1;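 further: KINOMEscan kinase panel screen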
Threshold check on %Inh: at or above 8% gives True, strictly below gives False.

molecule: CCc1ccc(-c2ccc3c(c2)-c2c(cnn2C)S(=O)(=O)N3C)cc1
assayed_target: INSR
category_label: False

molecule: CNC(=O)c1ccccc1Nc1nc(Nc2ccc(N3CCOCC3)cc2)ncc1Cl.Cl
assayed_target: INSR
category_label: True

molecule: COc1cccc(-c2ccc3c(NC(=O)C4CC4)n[nH]c3n2)c1
assayed_target: INSR
category_label: False

-- ask Is the recorded value of %Inh equal to or greater than 8% for this molecule? NCCCC(NC(=O)c1cc(Br)c(-c2ccnc3[nH]ccc23)s1)c1ccccc1.O=C(O)C(F)(F)F.O=C(O)C(F)(F)F (centres unmarked)
-- reply False

-- ask Decide: is the reported value of %Inh for `c1ccc(-c2n[nH]cc2Nc2ccnc3ccccc23)nc1` equal to or greater than 8%?
-- reply False

-- ask Is %Inh at least 8%? Consider `O=C(Nc1cccc(Oc2ccc3nc(NC(=O)C4CC4)cn3n2)c1)c1ccccc1C(F)(F)F`
-- reply False

-- ask Is it the case that `Nc1ncc(-c2ccc3nccc(-c4ccncc4)c3c2)cc1S(=O)(=O)N1CCOCC1` has %Inh reaching or exceeding 8%?
-- reply True

-- ask Form field: %Inh at least 8%? Entry: `COc1cccc(C(=O)Nc2cccc(Oc3ccc4nc(NC(=O)C5CC5)cn4n3)c2)c1`
-- reply False

-- ask Decide: %Inh of `Cn1cc(-c2ccc3c(c2)CCN3C(=O)Cc2cccc(Cl)c2)c2c(N)ncnc21` >= 8%?
-- reply True

-- ask For this molecule, is measured %Inh 8% or higher? Cl.Cl.NCC(NC(=O)c1cc(-c2ccccc2)c(-c2ccnc3[nH]ccc23)s1)c1ccccc1 (centres unmarked)
-- reply True

====

# Test system: ANKK1
# test_conditions: concentration: 1 μM, replicates: in singlicate; n = 1
Tag: Satisfied if measured %Inh is not below 8%, Not satisfied if it is.

Solved entries:
compound: O=c1[nH]cc(-c2ccc(N3CCOCC3)cc2)c2sc(-c3cn[nH]c3)cc12
category_label: Satisfied
//
compound: COc1cccc(-c2ccc3c(NC(=O)C4CC4)n[nH]c3n2)c1
category_label: Not satisfied
//
compound: COC(=O)Nc1nc2ccc(Oc3ccc(NC(=O)Nc4cc(C(F)(F)F)ccc4F)cc3)cc2n1C.Cl
category_label: Satisfied
//
compound: O=C(Nc1n[nH]c2nc(-c3ccc(O)cc3)ccc12)C1CC1
category_label: Not satisfied
//
compound: COCCOCCOc1cc2ncc3c4ccc(C#N)cc4[nH]c3c2cc1OC
category_label: Satisfied

-- ask Tell me whether %Inh is at least 8% here: `CSc1cccc2c(-c3ccncn3)c(-c3ccc(F)cc3)nn12`
-- reply Not satisfied

====

Please go through the items and note down their %Inh.
# System: DAPK1
# test_conditions: concentration: 1 μM, replicates: in singlicate; n = 1
Answers are plain numbers, in %.

molecule: Nc1n[nH]c2cnc(-c3ccccc3)cc12
assayed_target: DAPK1
%Inh, %: 24

molecule: O=C(Nc1cccc(-c2nn3ccccc3c2-c2ccnc(Nc3cccc(C(F)(F)F)c3)n2)c1)c1c(F)cccc1F
assayed_target: DAPK1
%Inh, %: 0

molecule: Cl.c1ccc(-c2ccc3c(Nc4ccc5[nH]ccc5c4)ccnc3c2)nc1
assayed_target: DAPK1
%Inh, %: 5

Could I get %Inh for every one of these entries?
1. COc1cc(Nc2ncc3c(C)nc(-c4cc5ccccc5[nH]4)n3n2)cc(OC)c1OC
2. COCCOCCOc1cc2ncc3c4ccc(C#N)cc4[nH]c3c2cc1OC
3. COc1cc(Nc2nccc(N3CCC(NC(=O)c4cc5ccccc5s4)C3)n2)cc(OC)c1OC (centres unmarked)
4. O=C(Nc1cccc(Oc2ccc3nc(NC(=O)C4CC4)cn3n2)c1)c1ccccc1C(F)(F)F
5. O=C(Nc1cccc(-c2nn3ncccc3c2-c2ccnc(Nc3ccccc3)n2)c1)c1c(F)cccc1F

-- reply
1. 0
2. 0
3. 54
4. 0
5. 11

====

So I've got a bunch of compounds here, and I need their %Inh values.
# Test system: AURKA
# test_conditions: concentration: 1 μM, replicates: in singlicate; n = 1
Number first, unit second: that is the form wanted.

compound: Fc1ccc(-c2ncn(C3CCNCC3)c2-c2ccnc(Oc3ccc(-c4ccccc4)cc3)n2)cc1 [SB-245391]
result: 53%

compound: CC(C)c1nc(-c2cccc(NS(=O)(=O)c3c(F)cccc3F)c2F)c(-c2ccnc(Nc3ccc(N4CCOCC4)nc3)n2)s1 [GSK2008607]
result: 93.6%

compound: Cc1ccc(C(=O)N2CC[C@@H](O)C2)cc1-n1c(C)cc(OCc2ccc(F)cc2F)c(Br)c1=O
result: 0%

compound: COc1cccc(C(=O)Nc2cccc(Oc3ccc4nc(NC(=O)C5CC5)cn4n3)c2)c1
result: 55%

compound: c1ccc(-c2n[nH]cc2Nc2ccnc3ccccc23)nc1 [GW694077]
result: 15%

Required: %Inh, one value per compound below.
1. CCCCc1nn2ncccc2c1-c1ccnc(Nc2ccc(N3CCN(C)CC3)cc2)n1 [GW684941]
2. Cc1occc1-c1ncc(OC[C@@H](N)Cc2c[nH]c3ccccc23)cc1-c1ccc2[nH]nc(C)c2c1.O=C(O)C(F)(F)F [GSK682037]

-- reply
["96.7%", "0%"]

Could you report %Inh for every entry in the following list?
1. c1ccc(Oc2ccc(Nc3ccnc4cc(-c5ccc(CNCCN6CCOCC6)o5)ccc34)cc2)nc1 [GW567145]
2. COc1cccc(NC(=O)NC2CCN(c3ccnc(Nc4cc(OC)c(OC)c(OC)c4)n3)C2)c1 (stereo not shown) [GSK1379763]

-- reply
["22%", "75%"]

# batch: return %Inh for each of the 6 compounds below
1. COc1ccc(Nc2nccc(N3CCC(NC(=O)Nc4cccc(OC)c4)C3)n2)cc1 (stereo not shown) [GSK1379742]
2. Cc1ccc(F)c(C(=O)Nc2cccc(-c3nn4ccccc4c3-c3ccnc(Nc4cccc(F)c4)n3)c2)c1F [GSK361061]
3. FC(F)(F)c1ccc(/C=C/c2cncnc2Nc2ccc3[nH]c(Cc4ccccc4)nc3c2)cc1 [GW709199]
4. COc1ccc(Nc2nccc(NCCNC(=O)c3cc4ccccc4s3)n2)cc1 [GSK1379896]
5. O=C(Nc1n[nH]c2cc(-c3ccoc3)ccc12)C1CC1 [SB-738481]
6. O=C(Nc1cccc(-c2nn3ccccc3c2-c2ccnc(Nc3cccc(F)c3)n2)c1)c1c(F)ccc(F)c1Cl [GSK357952]

-- reply
["0%", "29%", "0%", "16%", "23%", "0%"]

// compound NCCCC(NC(=O)c1cc(Br)c(-c2ccnc3[nH]ccc23)s1)c1ccccc1.O=C(O)C(F)(F)F.O=C(O)C(F)(F)F (stereo not shown) [GSK1287544] , assay AURKA, %Inh value: 74%

====

Please provide measured %Inh for the entries that follow.
# Test system: PLK1
# test_conditions: concentration: 1 μM, replicates: in singlicate; n = 1
Numbers only, in %.

compound: CN1CCN(Cc2cccc(-c3ccc4c(Nc5ccc(Oc6ccccc6)cc5)ccnc4c3)c2)CC1 [GW578342]
assayed_target: PLK1
readout_number: 0

Parameters: items (list). Returns: %Inh for each item.
1. Oc1cc(Nc2ccnc3cc(I)ccc23)ccc1F [GW552771]
2. Cc1ccc(C(=O)N2CC[C@@H](O)C2)cc1-n1c(C)cc(OCc2ccc(F)cc2F)c(Br)c1=O
3. O=C(O)C(F)(F)F.O=C(O)C(F)(F)F.O=c1[nH]ccc2nc(N[C@@H]3CCCNC3)nc(Nc3ccc(S(=O)(=O)N4CCOCC4)cc3)c12 [GSK2177277]
4. COc1ccc(Nc2nccc(N3CCC(NC(=O)Nc4cccc(OC)c4)C3)n2)cc1 (stereo not drawn) [GSK1379742]
5. c1ccc(-c2cnc3nccnn23)cc1 [AH20685]

-- reply
1. 0
2. 0
3. 38
4. 5
5. 0

====

For each of the compounds below, state its %Inh.
# Test system: NEK9
# test_conditions: concentration: 1 μM, replicates: in singlicate; n = 1
Answers are plain numbers, in %.

For orientation, consider the following solved cases.
compound: CN(C)S(=O)(=O)c1cc(-c2ccc3nccc(-c4cccc(S(N)(=O)=O)c4)c3c2)cnc1N
metric_name: %Inh
unit_abbrev: %
readout_number: 32
//
compound: COc1cccc(NC(=O)NC2CCN(c3ccnc(Nc4cc(OC)c(OC)c(OC)c4)n3)C2)c1 (centres unmarked)
metric_name: %Inh
unit_abbrev: %
readout_number: 40

Each compound below has a recorded value; state its %Inh.
1. COc1cc2c(cc1OCCN1CCNCC1)ncc1c3ccc(C#N)cc3[nH]c21
2. CCS(=O)(=O)c1ccc(OC)c(Nc2nccc(-c3c(-c4cccc(NC(=O)c5c(F)cccc5F)c4)nn4ncccc34)n2)c1
3. COc1ccc(CNC(=O)NC2CCN(c3ccnc(Nc4ccc(F)cc4)n3)CC2)cc1
4. CN(c1ccc(NC(=O)Nc2cc(C(F)(F)F)ccc2F)cc1)c1ccnc(Nc2ccc(S(N)(=O)=O)cc2)n1
5. Cc1cccc(Nc2nc(N[C@H]3CCNC3)ncc2C(N)=O)c1.Cl

-- reply
1: 0; 2: 10; 3: 0; 4: 37; 5: 0

// for each compound in input: emit %Inh
1. CCc1ccc(-c2ccc3c(c2)-c2c(cnn2C)S(=O)(=O)N3C)cc1
2. COc1cc(Nc2ncc3c(C)nc(-c4cc5ccccc5[nH]4)n3n2)cc(OC)c1OC
3. COc1cc(Nc2nccc(-c3c(-c4cccc(NC(=O)c5c(F)cccc5F)c4)nn4ncccc34)n2)cc(OC)c1OC
4. NCCCC(NC(=O)c1cc(Br)c(-c2ccnc3[nH]ccc23)s1)c1ccccc1.O=C(O)C(F)(F)F.O=C(O)C(F)(F)F (centres unmarked)
5. Cn1cc(-c2ccc3c(c2)CCN3C(=O)Cc2cccc(F)c2)c2c(N)ncnc21

-- reply
1. 0
2. 90
3. 41
4. 17
5. 0

Batch request: %Inh per item, same order as input.
1. C[C@@H]1CC[C@@H](C(=O)Nc2ccccc2)CN1c1cc(-c2ccc3c(N)n[nH]c3c2)nc(N)n1
2. Cc1ccc(C(=O)N2CC[C@@H](O)C2)cc1-n1c(C)cc(OCc2ccc(F)cc2F)c(Br)c1=O
3. Cc1ccc(C)c(NC(=O)NC2CCN(c3ccnc(Nc4ccc(F)cc4)n3)C2)c1 (centres unmarked)
4. O=C(Nc1cccc(-c2nn3ccccc3c2-c2ccnc(Nc3cccc(F)c3)n2)c1)c1c(F)ccc(F)c1Cl
5. CN(C)Cc1ccc(-c2ccc3c(Nc4ccc(Oc5ccccn5)cc4)ccnc3c2)o1
6. Cl.c1ccc(-c2ccc3c(Nc4ccc5[nH]ncc5c4)ccnc3c2)nc1
7. COc1cc(Nc2nccc(-c3c(-c4cccc(NC(=O)c5c(F)cccc5F)c4)nn4ccccc34)n2)cc(OC)c1OC

-- reply
1: 8; 2: 0; 3: 0; 4: 19; 5: 0; 6: 7; 7: 48
